The values you see were collected from ChEMBL document CHEMBL1275388.

Target: Sodium-dependent dopamine transporter (Rattus norvegicus)
Sequence (P23977 whole entry): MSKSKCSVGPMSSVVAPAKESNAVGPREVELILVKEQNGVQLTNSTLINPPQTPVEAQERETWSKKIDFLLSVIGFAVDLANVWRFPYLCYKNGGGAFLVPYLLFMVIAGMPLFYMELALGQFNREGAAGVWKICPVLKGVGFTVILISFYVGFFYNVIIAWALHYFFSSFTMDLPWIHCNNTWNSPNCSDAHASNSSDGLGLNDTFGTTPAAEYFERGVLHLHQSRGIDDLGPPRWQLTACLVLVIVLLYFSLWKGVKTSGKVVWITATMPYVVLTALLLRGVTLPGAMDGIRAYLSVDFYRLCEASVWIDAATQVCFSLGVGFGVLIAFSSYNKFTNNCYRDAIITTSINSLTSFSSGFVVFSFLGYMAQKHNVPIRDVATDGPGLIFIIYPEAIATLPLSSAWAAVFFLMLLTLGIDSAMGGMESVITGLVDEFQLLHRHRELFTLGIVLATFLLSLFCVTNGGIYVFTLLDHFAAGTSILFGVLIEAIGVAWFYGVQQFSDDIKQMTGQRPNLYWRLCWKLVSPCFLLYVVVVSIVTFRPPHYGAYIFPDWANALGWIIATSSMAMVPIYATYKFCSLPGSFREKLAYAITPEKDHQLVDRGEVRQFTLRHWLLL
Test: Agonist activity at rat DAT expressed in CHO cells
Item-by-item account of EC50
quantity_kind: EC50

# compound, quantity_kind, result
rows = [
    ("O=c1cc(-c2ccc(O)c(O)c2)oc2cc(O)cc(O)c12 [LUTEOLIN]", "EC50", "1.45 µM"),
    ("COc1cc(O)cc2oc(-c3ccc(O)c(O)c3)cc(=O)c12", "EC50", "4.35 µM"),
    ("CCCOc1cc(O)cc2oc(-c3ccc(O)c(O)c3)cc(=O)c12", "EC50", "3.07 µM"),
    ("O=C(Oc1cc(O)cc2oc(-c3ccc(O)c(O)c3)cc(=O)c12)c1ccccc1", "EC50", "11.2 µM"),
    ("CC(C)C(=O)Oc1cc(O)c2c(=O)cc(-c3ccc(O)c(O)c3)oc2c1", "EC50", "1.38 µM"),
    ("CCOc1cc(-c2cc(=O)c3c(O)cc(O)cc3o2)ccc1O", "EC50", "12.9 µM"),
    ("Cc1ccc(C(=O)Oc2cc(O)cc3oc(-c4ccc(O)c(O)c4)cc(=O)c23)cc1", "EC50", "6.92 µM"),
    ("CCCCCCCCCCOc1cc(O)cc2oc(-c3ccc(O)c(O)c3)cc(=O)c12", "EC50", "33 µM"),
    ("CC(C)CCOc1cc(O)cc2oc(-c3ccc(O)c(O)c3)cc(=O)c12", "EC50", "3.43 µM"),
    ("CC(C)Oc1cc(O)cc2oc(-c3ccc(O)c(O)c3)cc(=O)c12", "EC50", "5.43 µM"),
    ("CCCCCCOc1cc(O)cc2oc(-c3ccc(O)c(O)c3)cc(=O)c12", "EC50", "4.58 µM"),
    ("CCCCCCCC(=O)Oc1cc(O)cc2oc(-c3ccc(O)c(O)c3)cc(=O)c12", "EC50", "8.56 µM"),
    ("O=c1cc(-c2ccc(O)c(O)c2)oc2cc(O)cc(OCCCCc3ccccc3)c12", "EC50", "2.59 µM"),
    ("CCCC(=O)Oc1cc(O)cc2oc(-c3ccc(O)c(O)c3)cc(=O)c12", "EC50", "1.82 µM"),
    ("CCCCC(=O)Oc1cc(O)cc2oc(-c3ccc(O)c(O)c3)cc(=O)c12", "EC50", "0.869 µM"),
    ("CCC(=O)Oc1cc(O)cc2oc(-c3ccc(O)c(O)c3)cc(=O)c12", "EC50", "31 µM"),
    ("CC(C)CCC(=O)Oc1cc(O)cc2oc(-c3ccc(O)c(O)c3)cc(=O)c12", "EC50", "2.71 µM"),
    ("CCCCCCCCOc1cc(O)cc2oc(-c3ccc(O)c(O)c3)cc(=O)c12", "EC50", "16.5 µM"),
    ("CC(=O)Oc1cc(O)cc2oc(-c3ccc(O)c(O)c3)cc(=O)c12", "EC50", "5.37 µM"),
    ("CCC(=O)Oc1cc(O)c2c(=O)cc(-c3ccc(O)c(O)c3)oc2c1", "EC50", "1.7 µM"),
    ("CC(C)COc1cc(O)cc2oc(-c3ccc(O)c(O)c3)cc(=O)c12", "EC50", "4.8 µM"),
]
